All values here come from patent US11655235B2.

Molecular target: Recombinant human FAP (Homo sapiens)
Construct: purchased R&D systems
Sequence (Q12884 whole entry): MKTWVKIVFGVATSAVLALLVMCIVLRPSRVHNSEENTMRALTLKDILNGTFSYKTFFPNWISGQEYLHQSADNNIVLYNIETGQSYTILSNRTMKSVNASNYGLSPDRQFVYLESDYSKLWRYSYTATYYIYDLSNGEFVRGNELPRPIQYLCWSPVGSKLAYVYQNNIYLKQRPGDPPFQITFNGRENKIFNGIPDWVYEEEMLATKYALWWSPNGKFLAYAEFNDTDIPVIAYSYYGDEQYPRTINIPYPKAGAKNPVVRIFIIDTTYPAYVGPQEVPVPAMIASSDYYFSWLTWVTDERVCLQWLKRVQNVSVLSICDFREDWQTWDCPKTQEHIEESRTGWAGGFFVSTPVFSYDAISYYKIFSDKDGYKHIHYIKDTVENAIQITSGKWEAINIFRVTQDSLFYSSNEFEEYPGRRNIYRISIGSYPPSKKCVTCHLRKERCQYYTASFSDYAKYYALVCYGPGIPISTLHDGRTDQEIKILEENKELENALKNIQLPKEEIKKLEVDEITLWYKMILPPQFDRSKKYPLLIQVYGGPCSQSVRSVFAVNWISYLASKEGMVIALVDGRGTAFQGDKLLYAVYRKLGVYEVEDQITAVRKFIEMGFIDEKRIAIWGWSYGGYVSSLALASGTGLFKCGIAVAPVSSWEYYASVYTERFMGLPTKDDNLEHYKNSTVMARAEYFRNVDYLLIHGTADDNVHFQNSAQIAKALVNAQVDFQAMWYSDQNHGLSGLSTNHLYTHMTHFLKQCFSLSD
Experiment: FAP inhibition, fluorogenic substrate Z-Gly-Pro-AMC
Type: biochemical
Conditions: recombinant human FAP, substrate Z-Gly-Pro-AMC
Property: IC50
Numeric answer plus unit only.

Answer for every listed entry: what is its IC50? The entries follow.
1. CN(c1ccc2cnccc2c1)C1CCN(CC(=O)N2CCC[C@H]2C#N)CC1
2. N#C[C@@H]1C[C@H](F)CN1C(=O)CN1CCC(Nc2ccc3cnccc3c2)CC1
3. N#C[C@@H]1C[C@H](F)CN1C(=O)CN1CCC(Nc2cccc3cnc(Cl)cc23)CC1
4. CN(c1ccc2ncccc2c1)C1CCN(CC(=O)N2CCC[C@H]2C#N)CC1

["8.7 nM", "22.7 nM", "2.7 nM", "5.3 nM"]
